B1: Zinc finger homeobox protein 3, residues 2147 to 2202; numbered along this chain, Q15911 (parent)
chain: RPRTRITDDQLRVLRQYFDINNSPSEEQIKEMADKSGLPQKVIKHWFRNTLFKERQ

- Variants of: B1
- test_name: abundance fitness (aPCA) (normalised: wild type 0, dead -1); higher = more abundant; growth selection in yeast, the domain comes from the species named
- applied_conditions: Homo sapiens
parameter_measured: abundance fitness
# respond with the number and nothing more

Below, each entry is followed by its recorded abundance fitness result.
# variant_notation, numeric_value
measured = [
    ("L11V", -0.252),
    ("T7H", -0.336),
    ("E54G", -0.291),
    ("M32E", -0.987),
]

Query block: I have this variant here, I29S , and I need its recorded abundance fitness.
Result block: -0.491

Query block: I have this variant here, I43C , and I need its recorded abundance fitness.
Result block: -0.349

Query block: I have this variant here, R55Q , and I need its recorded abundance fitness.
Result block: -0.054

Query block: I have this variant here, E26V , and I need its recorded abundance fitness.
Result block: -0.082

Query block: I have this variant here, I6T , and I need its recorded abundance fitness.
Result block: -0.448

Query block: I have this variant here, R15V , and I need its recorded abundance fitness.
Result block: -0.226

Query block: I have this variant here, L51P , and I need its recorded abundance fitness.
Result block: -0.224
